test system: L1210 leukemia ip in BDF1 mice, survival T/C; test: NCI In Vivo Anticancer Drug Screen. Data for tumor model L1210 Leukemia (intraperitoneal) in B6D2F1 (BDF1) mice; conditions: endpoint: mean survival time; dose: 50.0 mg/kg/injection; schedule: Q04DX003 (ip); vehicle: saline; higher = longer survival
Toxic doses and inconclusive results are not listed.
# Lookup of reported T/C keyed by entry

compound	T/C
OCCN1CCN(CCCN2c3ccccc3Oc3ccc(C(F)(F)F)cc32)CC1	106 % of control
CC(=O)OCC1C(C)CCC1C(C)(C)OC(C)=O (centres undefined)	109 % of control
NC1Cc2ccccc2C1	109 % of control
CC1C(c2ccccc2)OCCN1C (centres undefined)	108 % of control

---

# Lookup of reported T/C keyed by entry
System: L1210 leukemia ip in BDF1 mice, survival T/C
Assay: NCI In Vivo Anticancer Drug Screen. Data for tumor model L1210 Leukemia (intraperitoneal) in B6D2F1 (BDF1) mice
Settings: endpoint: mean survival time; dose: 200.0 mg/kg/injection; schedule: Q04DX002 (ip); vehicle: saline with Tween-80; higher = longer survival
Description: The antitumor activity of compounds was measured in mice bearing transplantable tumors. Survival or tumor size were measured and the results are expressed as the measurement made in the treated group (T) divided by the measurement made in the vehicle treated control group (C). The tumor model used in this assay is L1210 Leukemia (intraperitoneal) in B6D2F1 (BDF1) mice
Inconclusive results and toxic doses are left out.
observable: T/C

molecule	measuredValue
COC(=O)C1=C(C(=O)OC)C2C=CC1C1(C)N=C(OC)C21C (centres undefined)	100 % of control
O=C1OC(c2cccc(Cl)c2)=N/C1=C\c1cc(Br)ccc1O	96 % of control
O=c1oc(-c2cccc([N+](=O)[O-])c2)nc2cc(Cl)ccc12	93 % of control
CCCCOP(=O)(Nc1ccc([N+](=O)[O-])cc1)OCCCC	94 % of control

---

test system: L1210 leukemia ip in BDF1 mice, survival T/C; experiment: NCI In Vivo Anticancer Drug Screen. Data for tumor model L1210 Leukemia (intraperitoneal) in B6D2F1 (BDF1) mice; details: endpoint: mean survival time; dose: 200.0 mg/kg/injection; schedule: Q04DX003 (ip); vehicle: other; higher = longer survival
Inconclusive results and toxic doses are left out. Square brackets hold non-standard residues; d marks the D form. Peptide text beside a SMILES is read from it. * marks the point of attachment. ξ: configuration not given here. Cbz = O=C(OCc1ccccc1)*; ξI = CCC(C)C(N)C(=O)O; OBn = c1ccc(CO*)cc1

compound	T/C
CCC(C)C(NC(=O)CNC(=O)OCc1ccccc1)C(=O)OCc1ccccc1 (stereo not drawn) (Cbz-Gly-[ξI]-OBn)	98 % of control
CCC1(C)CC1(Cl)Cl (stereo unspecified)	102 % of control
CCCC(=O)NC1CCC(CC2CCCCC2)CC1 (stereo unspecified)	100 % of control
O=C(O)C1CC=CCC1c1ccccc1 (stereo unspecified)	96 % of control
COC(=O)c1cc(OC)cc(OC)c1	92 % of control
CC(=NCc1ccccc1)C(C)(O)c1ccccc1 (stereo unspecified)	90 % of control

---

# Lookup of reported T/C keyed by entry
system: L1210 leukemia ip in BDF1 mice, survival T/C; test: NCI In Vivo Anticancer Drug Screen. Data for tumor model L1210 Leukemia (intraperitoneal) in B6D2F1 (BDF1) mice; details: endpoint: mean survival time; dose: 400.0 mg/kg/injection; schedule: Q01DX009 (ip); vehicle: Klucel (hydroxypropylcellulose) (HPC); higher = longer survival
Toxic doses and inconclusive results are not listed.
observable: T/C

compound	measuredValue
O=C(NCc1ccc(Cl)c(Cl)c1)Nc1ccccc1F	101 % of control
NNC(=O)C(CSC(c1ccccc1)c1ccccc1)NC(=O)C(CSC(c1ccccc1)(c1ccccc1)c1ccccc1)NC(=O)OCc1ccccc1 (centres undefined)	94 % of control
COc1ccc(-c2c(N)nc(=S)[nH]c2C(=O)O)cc1	103 % of control
Cc1[nH]c2ccccc2c1C(c1ccccc1O)c1c(C)[nH]c2ccccc12	101 % of control
Cc1nc(C)c([N+](=O)[O-])s1	101 % of control
O=C(Oc1cccc(OC(=O)c2ccc(Cl)cc2)c1)c1ccc(Cl)cc1	108 % of control
CN(C)c1ccc(/C=N/NC(=O)C(O)C(O)C(O)C(O)CO)cc1 (centres undefined)	102 % of control
Nc1ccc(Cl)c(C(=O)O)c1	105 % of control
COc1ccc(O)c(/C=N/NC(N)=S)c1	100 % of control
CCN(CCOC(=O)Nc1cccc(C(C)=O)c1)c1ccccc1	106 % of control
COC(=O)C(c1ccccc1)C(Br)C(=O)c1ccc(Cl)cc1 (centres undefined)	94 % of control
CC(=O)C(=Cc1ccccc1)C(C)=O	91 % of control
O=C(Nc1ccc(F)cc1)Nc1nccs1	98 % of control
COc1cc(C(=O)NNC(=O)c2cccc(C)c2)cc(OC)c1OC	105 % of control
O=S(=O)(Nc1c(Cl)c(Cl)c(NS(=O)(=O)c2ccccc2)c(Cl)c1Cl)c1ccccc1	103 % of control
c1ccc(-c2cnoc2-c2ccccc2)cc1	102 % of control
CCOC(=O)C(C(=O)OCC)N(CC)CC	95 % of control
O=C(Nc1ccc(F)cc1)Nc1ccccc1C(F)(F)F	88 % of control
O=c1c2ccccc2nc(-c2ccccc2)n1/N=C/c1ccccc1O	100 % of control
O=C(OC1CC2CC1C1CCCC21)c1ccc([N+](=O)[O-])cc1 (centres undefined)	97 % of control
C(=N\C(/N=C/c1ccccc1)c1ccccc1)/c1ccccc1	92 % of control
CC(C)CCCC(C)CC1CC(C)CCC1O (centres undefined)	101 % of control
Cc1ccc(NC(=S)NCCc2ccccn2)cc1C	91 % of control
CC(/C=C/C=C/c1ccccc1)=N\O	96 % of control
C/C(=N/N(C)C)c1ccccc1O	92 % of control
COc1ccc(C(=O)NC(=S)Nc2cccc(Cl)c2)cc1	87 % of control
Cc1cc2oc(/C=N\Nc3nc4ccccc4s3)c(C)c2cc1C	108 % of control
CCOc1ccc(NC(=O)CCC(=O)O)cc1	91 % of control
COc1ccc(NC(=O)c2ccccc2Cl)cc1	95 % of control
NC(=O)c1ccccc1NC(=O)Nc1cc(C(F)(F)F)ccc1Cl	97 % of control
CCC(=O)Nc1cc(C)ccc1Cl	103 % of control
Brc1ccc2c(c1)oc1ccccc12	100 % of control
COc1ccc(N2C(=O)C3C(C2=O)C2(Cl)C(Cl)=C(Cl)C3(Cl)C2(Cl)Cl)c(OC)c1 (centres undefined)	93 % of control
Cc1ccc(-n2c(=S)[nH]c3ccccc3c2=O)cc1C	92 % of control
COc1cccc(/C=c2\[nH]c(=O)/c(=C/c3cccc(OC)c3OC)[nH]c2=O)c1OC	96 % of control
O=C1c2ccccc2-c2nc3cc4ccccc4cc3nc21	102 % of control
O=[N+]([O-])c1ccc(/C=C/c2ccccc2)cc1	96 % of control
COc1cc2c(cc1OC)/C(=C\C(=O)N1CCCC1=O)CCC2	94 % of control
COc1cc([N+](=O)[O-])ccc1NC(=O)Nc1ccc(Cl)cc1[N+](=O)[O-]	90 % of control
COc1ccccc1NC(=O)Nc1ccccc1F	97 % of control
COC(=O)CNc1ccc(S(=O)(=O)c2ccc(N)cc2)cc1	88 % of control
CC(=O)Oc1c(Br)c(-c2c(C)cc(C)c(Br)c2C)c(OC(C)=O)c(Br)c1-c1c(C)cc(C)c(Br)c1C	97 % of control
O=C1c2ccccc2-c2cc(-c3ccccc3)cc(-c3ccccc3)c21	94 % of control
NC(=O)NOCC1NC(=O)C(CONC(N)=O)NC1=O (centres undefined)	96 % of control

Reference source for all entries: PubChem BioAssay AID248
